The reported measurements were obtained from the supplement of paper PMC7125110.

# self-cleavage kobs at 40 uM GlcN6P listing for each entry below
B1: glmS ribozyme (parent)
chain: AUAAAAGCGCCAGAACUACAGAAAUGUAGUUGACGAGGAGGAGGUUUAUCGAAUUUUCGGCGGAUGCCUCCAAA

- Variants of: B1
- ASSAY PROCEDURE: self-cleavage kobs at 40 uM GlcN6P; higher = faster cleavage; RNA array
- TEST PARAMETERS: with glucosamine-6-phosphate
This sample holds only a part of the variants without activity.
RESULT TYPE: self-cleavage kobs at 40 uM GlcN6P

variant_spec="A14C G60A" recorded_measurement="< 1e-05 s⁻¹"
variant_spec="G40C G41C" recorded_measurement="< 1e-05 s⁻¹"
variant_spec="C8U G59A" recorded_measurement="< 1e-05 s⁻¹"
variant_spec="A39C A52U" recorded_measurement="< 1e-05 s⁻¹"
variant_spec="G38U U45G C67U" recorded_measurement="< 1e-05 s⁻¹"
variant_spec="G9C U45G" recorded_measurement="< 1e-05 s⁻¹"
variant_spec="A33U A36C A39C G41C G44A U46G G51U C58U A64U" recorded_measurement="< 1e-05 s⁻¹"
variant_spec="U30G G66A" recorded_measurement="0.000144 s⁻¹"
variant_spec="A14C C71A" recorded_measurement="3.61e-05 s⁻¹"
variant_spec="C8U U30C" recorded_measurement="< 1e-05 s⁻¹"
variant_spec="U30A A53C G60U" recorded_measurement="< 1e-05 s⁻¹"
variant_spec="U47C A53U U56A G59C" recorded_measurement="< 1e-05 s⁻¹"
variant_spec="G41A A64C" recorded_measurement="< 1e-05 s⁻¹"
variant_spec="G38C G41U G60C" recorded_measurement="< 1e-05 s⁻¹"
variant_spec="G7C G35U" recorded_measurement="< 1e-05 s⁻¹"
variant_spec="G44A C61G" recorded_measurement="< 1e-05 s⁻¹"
variant_spec="G37U G59A" recorded_measurement="< 1e-05 s⁻¹"
variant_spec="G13C C34U G35U" recorded_measurement="< 1e-05 s⁻¹"
variant_spec="G9U A52G" recorded_measurement="< 1e-05 s⁻¹"
variant_spec="A14G U31A A36U A64G" recorded_measurement="< 1e-05 s⁻¹"
variant_spec="U54A C61U G62A" recorded_measurement="< 1e-05 s⁻¹"
variant_spec="A15G U31G U69C" recorded_measurement="4.45e-05 s⁻¹"
variant_spec="U47C U56G" recorded_measurement="7.97e-05 s⁻¹"
variant_spec="G38U U46A" recorded_measurement="< 1e-05 s⁻¹"
variant_spec="G13A U46G G59U C70U" recorded_measurement="< 1e-05 s⁻¹"
variant_spec="A12U A36U C50A U69G" recorded_measurement="9.31e-05 s⁻¹"
variant_spec="A39G G59U" recorded_measurement="< 1e-05 s⁻¹"
variant_spec="G29U A48C G63U" recorded_measurement="< 1e-05 s⁻¹"
variant_spec="C8A G43U" recorded_measurement="< 1e-05 s⁻¹"
variant_spec="A12C U54G" recorded_measurement="0.000492 s⁻¹"
variant_spec="A6G G13U" recorded_measurement="< 1e-05 s⁻¹"
variant_spec="G40A G41C A48C C68A C70U" recorded_measurement="< 1e-05 s⁻¹"
variant_spec="A33U U56A C71A" recorded_measurement="< 1e-05 s⁻¹"
variant_spec="A12U C68U" recorded_measurement="0.000326 s⁻¹"
variant_spec="A14C A33C" recorded_measurement="< 1e-05 s⁻¹"
variant_spec="A53G U69C" recorded_measurement="0.000897 s⁻¹"
variant_spec="U55A U56G" recorded_measurement="0.000292 s⁻¹"
variant_spec="A12G C50A" recorded_measurement="< 1e-05 s⁻¹"
variant_spec="C34G G43C U47A U49C U55G" recorded_measurement="< 1e-05 s⁻¹"
variant_spec="A52U A53G" recorded_measurement="< 1e-05 s⁻¹"
variant_spec="C50G G66U C67A" recorded_measurement="0.000105 s⁻¹"
variant_spec="G37C U57A" recorded_measurement="< 1e-05 s⁻¹"
variant_spec="A6G G62C" recorded_measurement="< 1e-05 s⁻¹"
variant_spec="A12U U49G" recorded_measurement="3.38e-05 s⁻¹"
variant_spec="G9C U57A" recorded_measurement="< 1e-05 s⁻¹"
variant_spec="G38U C58U U69G" recorded_measurement="0.000148 s⁻¹"
